Reference source: paper PMC10786891

tested target: T1, EsCas13d, nuclease-dead (Eubacterium siraeum, UniProt B0MS50, R295A;H300A;R849A;H854A)
T1 sequence: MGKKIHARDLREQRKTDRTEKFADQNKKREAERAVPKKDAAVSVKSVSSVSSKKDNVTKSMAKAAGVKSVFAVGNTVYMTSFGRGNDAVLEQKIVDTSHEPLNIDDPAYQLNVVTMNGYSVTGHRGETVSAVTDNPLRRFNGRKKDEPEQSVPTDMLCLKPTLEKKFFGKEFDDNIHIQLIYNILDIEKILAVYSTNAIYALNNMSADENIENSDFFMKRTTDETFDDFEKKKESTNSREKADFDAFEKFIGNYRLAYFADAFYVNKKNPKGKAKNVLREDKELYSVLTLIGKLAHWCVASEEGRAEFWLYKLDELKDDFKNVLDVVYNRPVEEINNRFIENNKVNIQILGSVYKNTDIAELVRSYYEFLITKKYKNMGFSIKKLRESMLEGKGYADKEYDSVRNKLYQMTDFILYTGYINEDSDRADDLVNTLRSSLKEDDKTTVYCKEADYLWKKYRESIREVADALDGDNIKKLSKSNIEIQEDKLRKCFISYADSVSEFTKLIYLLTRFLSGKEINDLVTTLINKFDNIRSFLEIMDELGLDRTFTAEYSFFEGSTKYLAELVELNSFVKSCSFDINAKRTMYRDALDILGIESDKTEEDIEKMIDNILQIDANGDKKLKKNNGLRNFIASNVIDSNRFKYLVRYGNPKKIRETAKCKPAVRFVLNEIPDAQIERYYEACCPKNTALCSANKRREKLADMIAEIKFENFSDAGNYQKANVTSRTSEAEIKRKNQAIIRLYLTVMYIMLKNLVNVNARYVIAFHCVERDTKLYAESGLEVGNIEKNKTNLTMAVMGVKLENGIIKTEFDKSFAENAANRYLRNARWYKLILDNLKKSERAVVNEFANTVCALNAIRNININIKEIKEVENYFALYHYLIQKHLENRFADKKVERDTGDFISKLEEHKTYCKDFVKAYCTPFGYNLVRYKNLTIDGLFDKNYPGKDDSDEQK
assay: crRNA (strand 1, pre-loaded); Mg2+; 40 mM Tris-HCl pH 7.5, 150 mM NaCl, 6 mM MgCl2, 1 mM DTT, 0.1% Tween-20, 0.2 mg/ml BSA; 25 C; 10 min per concentration, then washed
applied conditions: tags: His6-TwinStrep-SUMO cleaved; N-terminal SNAP kept (SNAP-Surface 488); label: 3' end held by stalled T7 RNA polymerase
pKd: −log10 of the molar value.
Listing of entries alongside the reported pKd.
property name: pKd

• target 1 insC 3' of 22,insA 3' of 3 (mixed) RNA 1: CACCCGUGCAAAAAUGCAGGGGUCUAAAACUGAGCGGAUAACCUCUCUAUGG RNA 2: GGGAAUGGAUCCACAUCUACGAAUUCGUACCCAUAGAGAGGUUAUCCGCUACACCGAGAUCGGAAGAGCACACGU = 7.93
• target 1 C2G,C7G (mixed) RNA 1: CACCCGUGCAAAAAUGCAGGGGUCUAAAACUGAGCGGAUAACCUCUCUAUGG RNA 2: GGGAAUGGAUCCACAUCUACGAAUUCGUACCAUAGAGAGGUUAUGCGCUGACCGAGAUCGGAAGAGCACACGU = 8.05
• target 3 A5U,U7A (mixed) RNA 1: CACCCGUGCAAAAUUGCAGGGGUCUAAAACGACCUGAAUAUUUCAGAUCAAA RNA 2: GGGAAUGGAUCCACAUCUACGAAUUCGUUUUUGAUCUGAAAUAUACUGGUCUGCAGAUCGGAAGAGCACACGU = 7.20
• target 3 C6A,U8G (mixed) RNA 1: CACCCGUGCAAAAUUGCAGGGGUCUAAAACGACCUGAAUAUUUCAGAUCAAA RNA 2: GGGAAUGGAUCCACAUCUACGAAUUCGUUUUUGAUCUGAAAUAGUAAGGUCUGCAGAUCGGAAGAGCACACGU = 7.19
• target 2 MT 5'PFS CUU 3'PFS CCC (mixed) RNA 1: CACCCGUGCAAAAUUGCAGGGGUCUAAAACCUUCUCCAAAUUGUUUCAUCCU RNA 2: GGGAAUGGAUCCACAUCUACGAAUUCCUUAGGAUGAAACAAUUUGGAGAAGCCCAGAUCGGAAGAGCACACGU = 7.74
• target 1 MT 5'PFS GAC 3'PFS CAA (mixed) RNA 1: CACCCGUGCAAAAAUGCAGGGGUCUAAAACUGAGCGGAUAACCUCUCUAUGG RNA 2: GGGAAUGGAUCCACAUCUACGAAUUCGACCCAUAGAGAGGUUAUCCGCUCACAAAGAUCGGAAGAGCACACGU = 7.59
• target 1 A1G,A9G (mixed) RNA 1: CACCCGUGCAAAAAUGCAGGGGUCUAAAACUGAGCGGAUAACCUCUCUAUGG RNA 2: GGGAAUGGAUCCACAUCUACGAAUUCGUACCAUAGAGAGGUUGUCCGCUCGCCGAGAUCGGAAGAGCACACGU = 7.90
• target 3 C1G,U8A (mixed) RNA 1: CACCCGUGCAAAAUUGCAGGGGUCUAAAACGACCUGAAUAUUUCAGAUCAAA RNA 2: GGGAAUGGAUCCACAUCUACGAAUUCGUUUUUGAUCUGAAAUAAUCAGGUGUGCAGAUCGGAAGAGCACACGU = 7.34
